Entries annotated with measured pIC50
Test system: VCaP cells
Experiment: Prostate Cancer Cell Viability Assay-VCaP
Assay type: cell-based
Details: Homo sapiens, 120 h, 10% Charcoal Stripped Serum, 5 days, CellTiter-Glo, * n = 1
Where a name gives a salt, the structure may show the parent alone.
Keep in mind that pIC50 stands for -log10 of concentration in molar terms.

N#Cc1ccc(N2C(=O)C3(CCC3)N(c3ccc(OC4CCNCC4)cc3)C2=S)cc1Cl [Compound 21]
5.90
Cc1cc(N2C(=O)C3(CCC3)N(c3ccc(OC4CCN(C)CC4)cc3)C2=S)ccc1C#N [Compound 17]
5.47
CC1(C)C(=O)N(c2ccc(C#N)c(C(F)(F)F)c2)C(=S)N1c1cnc(OC2CCNCC2)nc1 [Compound 5]
4.88
N#Cc1ccc(N2C(=O)C3(CCC3)N(c3ccc(OC4CCNCC4)nc3)C2=S)cc1C(F)(F)F [Compound 13, hydrochloride]
6.27
CN1CCC(Oc2ccc(N3C(=S)N(c4ccc(C#N)c(C(F)(F)F)c4)C(=O)C34CCC4)cn2)CC1 [Compound 14]
4.88

Inquiry: Recorded pIC50 for CC1(C)C(=O)N(c2ccc(C#N)c(Cl)c2)C(=S)N1c1ccc(OC2CCNCC2)nc1 [Compound 9, hydrochloride] with VCaP cells, please?
Reply text: 5.77

Inquiry: So what pIC50 did CC1(C)C(=O)N(c2ccc(C#N)c(C(F)(F)F)c2)C(=S)N1c1ccc(OC2CCNCC2)cc1 [Compound 1] get with VCaP cells?
Reply text: 5.64

###

Tested on: LNCaP F876L
Test: LNCaP Proliferation Assay, LNCaP F876L
Format: cell-based
Conditions: Homo sapiens, 96 h, 1% CSS, 4 days, CellTiter-Glo, normalized to 0.1 nM R1881 stimulation
Counter-ions that a name gives are not always drawn.
observed_property: IC50
Quick note: unit goes after the number.

Sample answers from the record:
N#Cc1ccc(N2C(=O)C3(CCC3)N(c3ccc(OC4CCNCC4)cc3)C2=S)cc1Cl
3.78 µM
N#Cc1ccc(N2C(=O)C3(CCC3)N(c3cnc(OC4CCNCC4)nc3)C2=S)cc1C(F)(F)F
1.53 µM
CN1CCC(Oc2ccc(N3C(=S)N(c4ccc(C#N)c(Cl)c4)C(=O)C34CCC4)cc2)CC1
3.78 µM

Inquiry: Look at this molecule and give its reported IC50. CN1CCC(Oc2ccc(N3C(=S)N(c4ccc(C#N)c(C(F)(F)F)c4)C(=O)C3(C)C)cc2)CC1 [Compound 2, hydrochloride]
Reply text: 1.31 µM

Inquiry: Request the reported IC50 associated with "COc1cc(N2C(=O)C3(CCC3)N(c3ccc(OC4CCN(C)CC4)cc3)C2=S)ccc1C#N"
Reply text: 21.4 µM

Inquiry: Can you share its IC50? I mean this molecule: CC1(C)C(=O)N(c2ccc(C#N)c(Cl)c2)C(=S)N1c1ccc(OC2CCNCC2)cc1 [Compound 7, hydrochloride]
Reply text: 31.2 µM

Inquiry: Tell me the measured IC50 of "CC1(C)C(=O)N(c2ccc(C#N)c(C(F)(F)F)c2)C(=S)N1c1cnc(OC2CCNCC2)nc1" , please.
Reply text: 0.95 µM

###

Test system: LNCaP F876L
Experiment: LNCaP Proliferation Assay, LNCaP F876L
Format: cell-based
Conditions: Homo sapiens, 96 h, 1% CSS, 4 days, CellTiter-Glo, normalized to 0.1 nM R1881 stimulation
Counter-ions that a name gives are not always drawn.
observed_property: IC50 (µM)
Give just the numeric value; µM need not be written.

Inquiry: May I ask what IC50 has been recorded for CN1CCC(Oc2ccc(N3C(=S)N(c4ccc(C#N)c(C(F)(F)F)c4)C(=O)C3(C)C)cn2)CC1 [Compound 4, hydrochloride] ?
Reply text: 0.85

Inquiry: For the compound "Cc1cc(N2C(=O)C3(CCC3)N(c3ccc(OC4CCN(C)CC4)nc3)C2=S)ccc1C#N" , what IC50 is on record?
Reply text: 0.84

Inquiry: Data request, read-out IC50, for "CN1CCC(Oc2ccc(N3C(=S)N(c4ccc(C#N)c(C(F)(F)F)c4)C(=O)C34CCC4)cn2)CC1"
Reply text: 1.25

Inquiry: For the compound shown here, "COc1cc(N2C(=O)C3(CCC3)N(c3ccc(OC4CCN(C)CC4)nc3)C2=S)ccc1C#N" , give the reported IC50.
Reply text: 1.69

Inquiry: Could you tell me which IC50 is on file for CN1CCC(Oc2ccc(N3C(=S)N(c4ccc(C#N)c(Cl)c4)C(=O)C3(C)C)cn2)CC1 [Compound 10, hydrochloride] ?
Reply text: 0.83

###

Molecular target: F876L mutant Androgen Receptor (AR-F876L) (Homo sapiens, UniProt P10275, F877L)
Construct: expressed in transfected cells; host or cells: LNCaP
Sequence (P10275 1-920 F877L): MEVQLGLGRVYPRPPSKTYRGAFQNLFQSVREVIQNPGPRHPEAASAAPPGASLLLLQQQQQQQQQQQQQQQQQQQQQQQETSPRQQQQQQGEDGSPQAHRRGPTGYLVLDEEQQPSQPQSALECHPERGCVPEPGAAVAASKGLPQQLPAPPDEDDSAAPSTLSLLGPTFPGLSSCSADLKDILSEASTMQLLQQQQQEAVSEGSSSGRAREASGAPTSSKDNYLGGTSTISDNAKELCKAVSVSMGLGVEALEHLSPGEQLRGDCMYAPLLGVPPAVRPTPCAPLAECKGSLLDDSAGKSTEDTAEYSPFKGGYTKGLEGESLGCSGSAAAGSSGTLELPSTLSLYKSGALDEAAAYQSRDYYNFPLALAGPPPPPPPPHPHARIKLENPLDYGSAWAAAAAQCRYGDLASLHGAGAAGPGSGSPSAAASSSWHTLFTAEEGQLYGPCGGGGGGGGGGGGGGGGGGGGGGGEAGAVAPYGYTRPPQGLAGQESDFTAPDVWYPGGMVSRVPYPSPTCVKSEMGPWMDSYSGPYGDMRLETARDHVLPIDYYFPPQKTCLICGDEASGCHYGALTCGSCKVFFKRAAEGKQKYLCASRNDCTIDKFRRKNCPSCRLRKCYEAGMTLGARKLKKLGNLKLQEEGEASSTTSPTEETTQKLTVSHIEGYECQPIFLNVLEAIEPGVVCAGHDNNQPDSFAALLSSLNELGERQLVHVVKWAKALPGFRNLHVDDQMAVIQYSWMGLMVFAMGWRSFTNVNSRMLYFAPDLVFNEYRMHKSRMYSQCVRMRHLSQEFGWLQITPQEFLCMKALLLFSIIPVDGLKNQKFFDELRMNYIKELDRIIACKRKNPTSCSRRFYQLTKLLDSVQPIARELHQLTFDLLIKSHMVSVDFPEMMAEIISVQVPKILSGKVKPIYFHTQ
Experiment: AR reporter assay, LNCaP-AR-F876L ANT (antagonist mode)
Format: cell-based
Settings: read-out: LNCaP-AR-F876L ANT MAX % Inh
The entries below are paired with their reported Emax.
The reply should be a number in %, with the unit left off.

Inquiry: Fill blank: measured Emax of the compound "Cc1cc(N2C(=O)C3(CCC3)N(c3ccc(OC4CCN(C)CC4)cc3)C2=S)ccc1C#N" is ____.
Reply text: 101

###

Target: F876L mutant Androgen Receptor (AR-F876L) (Homo sapiens, UniProt P10275, F877L)
Construct: expressed in transfected cells; host or cells: LNCaP
Assay: AR reporter assay, LNCaP-AR-F876L AG (agonist mode)
Assay type: cell-based
Conditions: read-out: LNCaP-AR-F876L AG MAX % Stim
Structures can show the parent of a compound that is named as a salt.
The entries below are paired with their reported Emax.
Write it as a number; the unit % goes unstated.

CC1(C)C(=O)N(c2ccc(C#N)c(C(F)(F)F)c2)C(=S)N1c1ccc(OC2CCNCC2)cc1
-0.1

Inquiry: Need Emax of CN1CCC(Oc2ccc(N3C(=S)N(c4ccc(C#N)c(Cl)c4)C(=O)C34CCC4)cn2)CC1 [Compound 24, hydrochloride] , thanks.
Reply text: 0.1

Inquiry: I am curious: what Emax value has been reported for N#Cc1ccc(N2C(=O)C3(CCC3)N(c3ccc(OC4CCNCC4)nc3)C2=S)cc1C(F)(F)F [Compound 13, hydrochloride] ?
Reply text: 0

Inquiry: # query: Emax of entry "N#Cc1ccc(N2C(=O)C3(CCC3)N(c3cnc(OC4CCNCC4)nc3)C2=S)cc1C(F)(F)F"
Reply text: -0.1

###

Reported Emax by item:
Biological target: wild-type Androgen Receptor (AR-wt) (Homo sapiens, UniProt P10275)
Construct: expressed in transfected cells; host or cells: LNCaP
Sequence (P10275 1-920): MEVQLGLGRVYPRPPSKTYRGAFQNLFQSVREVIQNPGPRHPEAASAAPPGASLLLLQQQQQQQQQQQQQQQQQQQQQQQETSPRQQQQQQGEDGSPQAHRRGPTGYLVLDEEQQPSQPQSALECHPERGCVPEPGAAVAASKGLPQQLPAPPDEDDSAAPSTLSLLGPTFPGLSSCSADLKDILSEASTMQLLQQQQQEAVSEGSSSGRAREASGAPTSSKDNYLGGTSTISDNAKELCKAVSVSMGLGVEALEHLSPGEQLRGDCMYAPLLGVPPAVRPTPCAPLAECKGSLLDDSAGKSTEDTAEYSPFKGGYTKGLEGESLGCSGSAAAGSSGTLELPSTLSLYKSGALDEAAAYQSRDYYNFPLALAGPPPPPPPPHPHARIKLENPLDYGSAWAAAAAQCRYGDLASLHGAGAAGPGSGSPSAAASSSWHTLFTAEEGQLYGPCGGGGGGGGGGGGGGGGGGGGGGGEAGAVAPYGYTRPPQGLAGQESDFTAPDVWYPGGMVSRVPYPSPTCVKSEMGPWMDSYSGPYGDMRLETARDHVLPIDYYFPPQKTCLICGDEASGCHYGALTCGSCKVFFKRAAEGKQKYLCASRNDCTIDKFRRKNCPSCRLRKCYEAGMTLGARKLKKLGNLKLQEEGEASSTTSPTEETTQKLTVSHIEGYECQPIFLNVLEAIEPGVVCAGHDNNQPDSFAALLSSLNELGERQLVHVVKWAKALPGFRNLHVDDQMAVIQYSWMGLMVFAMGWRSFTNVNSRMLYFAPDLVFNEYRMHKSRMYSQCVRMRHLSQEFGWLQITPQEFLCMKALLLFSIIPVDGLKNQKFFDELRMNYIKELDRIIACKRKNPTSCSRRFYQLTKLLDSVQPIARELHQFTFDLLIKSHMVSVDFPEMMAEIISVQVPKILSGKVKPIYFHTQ
Assay: AR reporter assay, LNCaP-AR-wt AG (agonist mode)
Assay type: cell-based
Conditions: read-out: LNCaP-AR-wt AG MAX % Stim
Counter-ions that a name gives are not always drawn.
Provide the reading as a plain figure in %.

These recorded examples may help you get a feel for the data.
Cc1cc(N2C(=O)C3(CCC3)N(c3ccc(OC4CCN(C)CC4)cc3)C2=S)ccc1C#N
-0.1
CC1(C)C(=O)N(c2ccc(C#N)c(C(F)(F)F)c2)C(=S)N1c1ccc(OC2CCNCC2)nc1 [Compound 3, hydrochloride]
0.5
CC1(C)C(=O)N(c2ccc(C#N)c(C(F)(F)F)c2)C(=S)N1c1ccc(OC2CCNCC2)cc1
0.6
CN1CCC(Oc2ccc(N3C(=S)N(c4ccc(C#N)c(C(F)(F)F)c4)C(=O)C34CCC4)cc2)CC1
0.4

Inquiry: Need Emax of "COc1cc(N2C(=O)C3(CCC3)N(c3ccc(OC4CCN(C)CC4)cc3)C2=S)ccc1C#N" , thanks.
Reply text: -0.1

Inquiry: For the compound shown here, CN1CCC(Oc2ccc(N3C(=S)N(c4ccc(C#N)c(Cl)c4)C(=O)C3(C)C)cn2)CC1 [Compound 10, hydrochloride] , give the reported Emax.
Reply text: 0.1

Inquiry: So what does the record say about Emax for "CN1CCC(Oc2ncc(N3C(=S)N(c4ccc(C#N)c(C(F)(F)F)c4)C(=O)C3(C)C)cn2)CC1" ?
Reply text: 0.8

Inquiry: If you can, please state the reported Emax value of CN1CCC(Oc2ccc(N3C(=S)N(c4ccc(C#N)c(Cl)c4)C(=O)C34CCC4)cn2)CC1 [Compound 24, hydrochloride] .
Reply text: 0.3

Inquiry: Any idea what Emax was measured for "N#Cc1ccc(N2C(=O)C3(CCC3)N(c3ccc(OC4CCNCC4)cc3)C2=S)cc1C(F)(F)F" ?
Reply text: 0.1

Inquiry: What does the data say about its Emax? Entry: "CN1CCC(Oc2ccc(N3C(=S)N(c4ccc(C#N)c(Cl)c4)C(=O)C34CCC4)cc2)CC1"
Reply text: -0.2

Inquiry: Reported Emax, compound "CN1CCC(Oc2ccc(N3C(=S)N(c4ccc(C#N)c(C(F)(F)F)c4)C(=O)C34CCC4)cn2)CC1" : ____
Reply text: 0.2

Inquiry: What Emax value was documented for this compound, "COc1cc(N2C(=O)C3(CCC3)N(c3ccc(OC4CCN(C)CC4)nc3)C2=S)ccc1C#N" ?
Reply text: -0.1

Inquiry: Please report the recorded Emax for N#Cc1ccc(N2C(=O)C3(CCC3)N(c3ccc(OC4CCNCC4)nc3)C2=S)cc1C(F)(F)F [Compound 13, hydrochloride] .
Reply text: 0.5

Inquiry: Dear colleague, I am looking for the recorded Emax of the following compound: "CN1CCC(Oc2ncc(N3C(=S)N(c4ccc(C#N)c(C(F)(F)F)c4)C(=O)C34CCC4)cn2)CC1"
Reply text: -0.1

Inquiry: Would you mind telling me what Emax value was observed for CN1CCC(Oc2ccc(N3C(=S)N(c4ccc(C#N)c(C(F)(F)F)c4)C(=O)C3(C)C)cn2)CC1 [Compound 4, hydrochloride] ?
Reply text: 0.1

Inquiry: GET /values?readout=Emax&item= "CC1(C)C(=O)N(c2ccc(C#N)c(C(F)(F)F)c2)C(=S)N1c1cnc(OC2CCNCC2)nc1"
Reply text: 0.1
